# Test system: HepG2
# test_summary: Induction of apoptosis in human HepG2 cells assessed as necrotic cells at IC50 concentration measured after 24 hrs by Annexin V-FITC/PI staining based flow cytometry method (reference value: 4.6%)
# Assay type: functional
readout_label: Activity (%)
Note: unit % is implicit; provide only the numeric part.

The compound listed as COc1cccc2c1C(=O)c1c(O)c3c(c(O)c1C2=O)C[C@@](O)(C(=O)CO)C[C@@H]3O[C@H]1C[C@H](N)[C@H](O)[C@H](C)O1 has a reported Activity of 4.2

The recorded Activity for Cc1cc(-c2nc3ccccc3o2)ccc1NC(=O)CN1CCN(CCCN(C)C)CC1 is 0.8

Entry CN(C)CCCN1CCN(CC(=O)Nc2ccc(-c3nc4cc(Cl)ccc4o3)cc2)CC1 , Activity reported as 1.1

Per the records, this compound ( CN(C)CCN1CCN(CC(=O)Nc2ccc(-c3nc4cc(Cl)ccc4o3)cc2)CC1 ) has Activity equal to 0.8

###

Hi there, I'd appreciate the recorded log10 of IC50 for every entry that follows.
# Test system: MCF7
# test_summary: Cytotoxicity against human MCF7 cells assessed as cell viability measured after 24 hrs by MTT assay
# Format: functional, cell-based
# experimental_parameters: MCF7, 24 h
Reminder: these figures are log10 of reported IC50, in µM before transformation.

Form: compound = Cc1ccc2oc(-c3ccc(NC(=O)CN4CCN(CCN(C)C)CC4)c(C)c3)nc2c1 ; log10 of IC50 = 1.96

Given item Cc1cc(-c2nc3cc(Cl)ccc3o2)ccc1NC(=O)CN1CCN(CCN(C)C)CC1 , the value recorded as its log10 of IC50 is 1.59

Recorded result, CN(C)CCCN1CCN(CC(=O)Nc2ccc(-c3nc4cc(Cl)ccc4o3)cc2)CC1 , log10 of IC50: 0.22

The compound identified as Cc1ccc2oc(-c3ccc(NC(=O)CCl)c(C)c3)nc2c1 registered its log10 of IC50 at 1.98

The compound listed as Cc1cc(-c2nc3ccccc3o2)ccc1NC(=O)CN1CCN(CCN(C)C)CC1 has a reported log10 of IC50 of 1.62

The recorded log10 of IC50 for O=C(CCl)Nc1ccc(-c2nc3cc(F)ccc3o2)cc1 is 0.51

Entry under test: Cc1ccc2oc(-c3ccc(NC(=O)CCl)cc3)nc2c1 . Its log10 of IC50 was 0.66

Kindly note the recorded log10 of IC50 for Cc1ccc2oc(-c3ccc(NC(=O)CN4CCN(CCCN(C)C)CC4)c(C)c3)nc2c1 , which is 1.30

// recorded log10 of IC50 for CN(C)CCN1CCN(CC(=O)Nc2ccc(-c3nc4ccccc4o3)cc2)CC1 : 1.77

###

# test_summary: Selectivity index, ratio of IC50 for cytotoxicity against mouse NIH3T3 cells to IC50 for cytotoxicity against rat C6 cells
# Type: toxicity, cell-based
# experimental_parameters: NIH3T3 cells versus C6 cells, read-out: Ratio IC50
For each of the molecules below, state its selectivity ratio.

Value of selectivity ratio reported for the molecule Cc1cc(-c2nc3cc(Cl)ccc3o2)ccc1NC(=O)CCl is < 0.09

Summary for this molecule, Cc1cc(-c2nc3cc(F)ccc3o2)ccc1NC(=O)CN1CCN(CCCN(C)C)CC1 : selectivity ratio is 5.59

selectivity ratio recorded for this molecule, Cc1ccc2oc(-c3ccc(NC(=O)CN4CCN(CCCN(C)C)CC4)c(C)c3)nc2c1 , is 1.81

According to the records, this molecule CN(C)CCCN1CCN(CC(=O)Nc2ccc(-c3nc4cc(F)ccc4o3)cc2)CC1 displays selectivity ratio of 0.8

For reference, reported selectivity ratio for CN(C)CCN1CCN(CC(=O)Nc2ccc(-c3nc4cc(Cl)ccc4o3)cc2)CC1 stands at 27.8

Looking up Cc1ccc2oc(-c3ccc(NC(=O)CCl)c(C)c3)nc2c1 , I see its selectivity ratio listed as 0.07

The molecule listed as Cc1cc(-c2nc3cc(Cl)ccc3o2)ccc1NC(=O)CN1CCN(CCCN(C)C)CC1 shows selectivity ratio equal to 2.01

###

# test_summary: Selectivity index, ratio of IC50 for cytotoxicity against mouse NIH3T3 cells to IC50 for cytotoxicity against rat C6 cells
# Assay type: toxicity, cell-based
# experimental_parameters: NIH3T3 cells versus C6 cells, read-out: Ratio IC50
Outcome label depends on selectivity ratio relative to 0.4: at/above gives y, below gives n.

Can Cc1ccc2oc(-c3ccc(NC(=O)CCl)cc3)nc2c1 be said to have selectivity ratio at or above 0.4?
y

Determine whether this molecule has selectivity ratio no lower than 0.4: Cc1ccc2oc(-c3ccc(NC(=O)CN4CCN(CCN(C)C)CC4)c(C)c3)nc2c1
n

Hi, just wondering whether Cc1ccc2oc(-c3ccc(NC(=O)CN4CCN(CCN(C)C)CC4)cc3)nc2c1 shows selectivity ratio of 0.4 or higher.
y

Item O=C(CCl)Nc1ccc(-c2nc3cc(F)ccc3o2)cc1 with selectivity ratio of 0.4 or above?
y

###

# test_summary: Selectivity index, ratio of IC50 for cytotoxicity against mouse NIH3T3 cells to IC50 for cytotoxicity against human HepG2 cells
# Assay type: toxicity, cell-based
# experimental_parameters: NIH3T3 cells versus HepG2 cells, read-out: Ratio IC50
Please assign 0 (no) whenever selectivity ratio is at or above 2, and 1 (yes) whenever it is below.

State whether 2 exceeds selectivity ratio recorded for Cc1ccc2oc(-c3ccc(NC(=O)CN4CCN(CCN(C)C)CC4)c(C)c3)nc2c1 .
1 (yes)

Consider CN(C)CCN1CCN(CC(=O)Nc2ccc(-c3nc4cc(F)ccc4o3)cc2)CC1 . Does its selectivity ratio lie strictly below 2?
0 (no)

Lab note: selectivity ratio threshold 2. Does this compound come in strictly under it? CN(C)CCCN1CCN(CC(=O)Nc2ccc(-c3nc4cc(F)ccc4o3)cc2)CC1
0 (no)

Report whether reported selectivity ratio is lower than 2 (strictly) for Cc1cc(-c2nc3cc(F)ccc3o2)ccc1NC(=O)CCl
1 (yes)

Does CN(C)CCN1CCN(CC(=O)Nc2ccc(-c3nc4ccccc4o3)cc2)CC1 have selectivity ratio strictly under 2?
0 (no)

selectivity ratio under 2? Item: Cc1ccc2oc(-c3ccc(NC(=O)CCl)c(C)c3)nc2c1
1 (yes)

Confirm or reject: selectivity ratio of CN(C)CCN1CCN(CC(=O)Nc2ccc(-c3nc4cc(Cl)ccc4o3)cc2)CC1 lies strictly below 2
0 (no)
